# Tested on: Plasmodium yoelii nigeriensis
# EXPERIMENT NOTES: Antimalarial activity in multidrug-resistant Plasmodium yoelii nigeriensis infected Swiss mouse assessed as suppression of parasitaemia at 96 mg/kg, po two devided dose daily for 4 days
# Assay type: functional
# CONDITION DESCRIPTION: 96 mg/kg
PROPERTY: Activity (%)
# value in %; strip the unit string

Below: 4 compounds and their reported Activity.
# COMPOUND, MEASUREMENT UNIT, VALUE OBSERVED
rows = [
    ("C=C(c1ccc(Br)cc1)[C@@H]1CO[C@@]2(CC[C@@]3(C)[C@H](CC[C@@H]4[C@@H]3CC[C@]3(C)[C@@H]([C@H](C)CCC(=O)OC)CC[C@@H]43)C2)OO1 (relative stereo; form 2)", "%", 18.57),
    ("C=C(c1ccccc1)[C@@H]1CO[C@@]2(CC[C@@]3(C)[C@H](CC[C@@H]4[C@@H]3CC[C@]3(C)[C@@H](C(C)=O)CC[C@@H]43)C2)OO1 (relative stereo; form 1)", "%", 79.89),
    ("C=C(c1ccccc1)[C@@H]1CO[C@@]2(CC[C@@]3(C)[C@H](CC[C@@H]4[C@@H]3CC[C@]3(C)[C@@H]([C@H](C)C(C)=O)CC[C@@H]43)C2)OO1 (relative stereo; form 1)", "%", 94.31),
    ("C=C(c1ccc(Br)cc1)[C@@H]1CO[C@@]2(CC[C@@]3(C)[C@H](CC[C@@H]4[C@@H]3CC[C@]3(C)[C@@H](O)CC[C@@H]43)C2)OO1 (relative stereo; form 1)", "%", 76.52),
]

The recorded Activity for C=C(c1ccc(F)cc1)[C@@H]1CO[C@@]2(CC[C@@]3(C)[C@H](CC[C@@H]4[C@@H]3CC[C@]3(C)[C@@H]([C@H](C)CCC(=O)OC)CC[C@@H]43)C2)OO1 (relative stereo; form 2) is 33.13

====

Measured Activity accompanies every entry in the list below.
# System: Plasmodium yoelii nigeriensis
# EXPERIMENT NOTES: Antimalarial activity in multidrug-resistant Plasmodium yoelii nigeriensis infected Swiss mouse assessed as suppression of parasitaemia at 96 mg/kg, po two devided dose daily for 4 days
# Assay type: functional
# CONDITION DESCRIPTION: 96 mg/kg
# value in %; strip the unit string

Below: 10 compounds and their reported Activity.
# COMPOUND, PROPERTY, VALUE OBSERVED
measured = [
    ("C=C(c1ccccc1)[C@@H]1CO[C@@]2(CC[C@@]3(C)[C@H](CC[C@@H]4[C@@H]3CC[C@]3(C)[C@@H]([C@H](C)CCC(=O)OC)CC[C@@H]43)C2)OO1 (relative stereo; form 2)", "Activity", 43.56),
    ("C=C(c1ccc(Cl)cc1)[C@@H]1CO[C@@]2(CC[C@@]3(C)[C@H](CC[C@@H]4[C@@H]3CC[C@]3(C)[C@@H]([C@H](C)C(C)=O)CC[C@@H]43)C2)OO1 (relative stereo; form 1)", "Activity", 100),
    ("C=C(c1ccc(Cl)cc1)[C@@H]1CO[C@@]2(CC[C@@]3(C)[C@H](CC[C@@H]4[C@@H]3CC[C@]3(C)[C@@H](C(C)=O)CC[C@@H]43)C2)OO1 (relative stereo; form 2)", "Activity", 100),
    ("C=C(c1ccc(Br)cc1)[C@@H]1CO[C@@]2(CC[C@@]3(C)[C@H](CC[C@@H]4[C@@H]3CC[C@]3(C)[C@@H]([C@H](C)CCC(=O)OC)CC[C@@H]43)C2)OO1 (relative stereo; form 1)", "Activity", 64.31),
    ("C=C(c1ccc(F)cc1)[C@@H]1CO[C@@]2(CC[C@@]3(C)[C@H](CC[C@@H]4[C@@H]3CC[C@]3(C)[C@@H]([C@H](C)C(C)=O)CC[C@@H]43)C2)OO1 (relative stereo; form 2)", "Activity", 100),
    ("C=C(c1ccc(Br)cc1)[C@@H]1CO[C@@]2(CC[C@@]3(C)[C@H](CC[C@@H]4[C@@H]3CC[C@]3(C)[C@@H](O)CC[C@@H]43)C2)OO1 (relative stereo; form 2)", "Activity", 100),
    ("C=C(c1ccccc1)[C@@H]1CO[C@@]2(CC[C@@]3(C)[C@H](CC[C@@H]4[C@@H]3CC[C@]3(C)[C@@H](C(C)=O)CC[C@@H]43)C2)OO1 (relative stereo; form 2)", "Activity", 100),
    ("C=C(c1ccccc1)[C@@H]1CO[C@@]2(CC[C@@]3(C)[C@H](CC[C@@H]4[C@@H]3CC[C@]3(C)[C@@H]([C@H](C)C(C)=O)CC[C@@H]43)C2)OO1 (relative stereo; form 2)", "Activity", 100),
    ("C=C(c1ccccc1)[C@@H]1CO[C@@]2(CC[C@@]3(C)[C@H](CC[C@@H]4[C@@H]3CC[C@]3(C)[C@@H](O)CC[C@@H]43)C2)OO1 (relative stereo; form 2)", "Activity", 100),
    ("C=C(c1ccccc1)[C@@H]1CO[C@@]2(CC[C@@]3(C)[C@H](CC[C@@H]4[C@@H]3CC[C@]3(C)[C@@H]([C@H](C)CCC(=O)OC)CC[C@@H]43)C2)OO1 (relative stereo; form 1)", "Activity", 20.6),
]

The recorded Activity for C=C(c1ccc(Cl)cc1)[C@@H]1CO[C@@]2(CC[C@@]3(C)[C@H](CC[C@@H]4[C@@H]3CC[C@]3(C)[C@@H]([C@H](C)CCC(=O)OC)CC[C@@H]43)C2)OO1 (relative stereo; form 2) is 45.23

The recorded Activity for C=C(c1ccc(F)cc1)[C@@H]1CO[C@@]2(CC[C@@]3(C)[C@H](CC[C@@H]4[C@@H]3CC[C@]3(C)[C@@H]([C@H](C)CCC(=O)OC)CC[C@@H]43)C2)OO1 (relative stereo; form 1) is 45.31

The recorded Activity for C=C(c1ccc(Br)cc1)[C@@H]1CO[C@@]2(CC[C@@]3(C)[C@H](CC[C@@H]4[C@@H]3CC[C@]3(C)[C@@H]([C@H](C)C(C)=O)CC[C@@H]43)C2)OO1 (relative stereo; form 1) is 56.73

The recorded Activity for C=C(c1ccc(Br)cc1)[C@@H]1CO[C@@]2(CC[C@@]3(C)[C@H](CC[C@@H]4[C@@H]3CC[C@]3(C)[C@@H](C(C)=O)CC[C@@H]43)C2)OO1 (relative stereo; form 2) is 89.78
